Biological target: HIV-1 protease (Human immunodeficiency virus type 1 group M subtype B)
Construct: The protease (or proteinase), consisting of only 99 amino acids, is among the smallest enzymes known
Experiment: In vitro HIV protease inhibitory assay (HIV Protease FITC Assay)
Assay type: biochemical
Details: HIV-1 Dose 100.000 uM; read-out: HIV-1 Protease % Inhib
value-kind: inhibition at 100 µM (%)
Your answer should be a plain number; it is taken to be in %.

So, CCC(c1ccccc1)c1c(O)cc(C=Cc2ccc(OC)cc2)oc1=O (centres unmarked) [Example 15] ? Its inhibition at 100 µM was 102

So, O=c1oc(CC(O)c2ccoc2)cc(O)c1C(c1ccccc1)C1CC1 (centres unmarked) [Example 152] ? Its inhibition at 100 µM was 110

So, O=c1oc(CC(O)c2ccccc2Cl)cc(O)c1C(c1ccccc1)C1CC1 (centres unmarked) [Example 151] ? Its inhibition at 100 µM was 113

So, CCC(Cc1ccccc1)c1cc(O)c(C(c2cccc(NC(=O)OCc3ccccc3)c2)C2CC2)c(=O)o1 (centres unmarked) [Example 36] ? Its inhibition at 100 µM was 87.5

So, CCCc1oc(=O)c(C(c2ccccc2)C2CC2)c(O)c1CCOCCOC (centres unmarked) [Example 78] ? Its inhibition at 100 µM was 106

So, O=c1oc(CCCCN2CCOCC2)cc(O)c1C(c1ccccc1)C1CC1 (centres unmarked) [Example 48] ? Its inhibition at 100 µM was 61.6

So, CCC(c1ccccc1)c1c(O)c(Br)c(CCC2CC2)oc1=O (centres unmarked) [Example 100] ? Its inhibition at 100 µM was 104

So, CC(c1cc(O)c(C(C2CC2)C2CC2)c(=O)o1)C1CC1 (centres unmarked) [Example 83] ? Its inhibition at 100 µM was 93.5

So, CCC(CC1CCCOC1)c1cc(O)c(C(c2ccccc2)C2CC2)c(=O)o1 (centres unmarked) [Example 61] ? Its inhibition at 100 µM was 103

So, COCCOCCC(Cc1ccccc1)c1cc(O)c(C(c2ccccc2)C2CC2)c(=O)o1 (centres unmarked) [Example 107] ? Its inhibition at 100 µM was 110

So, CC(C)CC(CC(C)C)c1cc(O)c(C(c2ccccc2)C2CC2)c(=O)o1 (centres unmarked) [Example 80] ? Its inhibition at 100 µM was 102

* * *

Target: HIV-1 protease (Human immunodeficiency virus type 1 group M subtype B, UniProt P04585)
Construct: The protease (or proteinase), consisting of only 99 amino acids, is among the smallest enzymes known
Test: In vitro HIV protease inhibitory assay (HIV Protease FITC Assay)
Assay type: biochemical
Conditions: HIV-1 Dose 1.230 uM; read-out: HIV-1 Protease % Inhib
For each record, write down the corresponding inhibition at 1.23 µM.
Your answer should be a plain number; it is taken to be in %.

So, CCC(Cc1cccs1)c1cc(O)c(C(c2ccccc2)C2CC2)c(=O)o1 (centres unmarked) ? Its inhibition at 1.23 µM was 89.4

So, CCC(C1=C(O)CC2(CCC(=O)CC2)OC1=O)c1ccccc1 (centres unmarked) ? Its inhibition at 1.23 µM was 27.1

So, CCC(CCOCCOC)c1cc(O)c(C(c2ccccc2)C2CC2)c(=O)o1 (centres unmarked) ? Its inhibition at 1.23 µM was 82.1

* * *

Target: HIV-1 protease (Human immunodeficiency virus type 1 group M subtype B, UniProt P04585)
Construct: The protease (or proteinase), consisting of only 99 amino acids, is among the smallest enzymes known
Test: In vitro HIV protease inhibitory assay (HIV Protease FITC Assay)
Assay type: biochemical
Conditions: read-out: HIV-1 FITC Ki
Could you mark each record YES if its Ki falls strictly under 200 nM, and NO if it equals or exceeds it?

[in] Please let me know if CCC(Cc1ccccc1)c1cc(O)c(C(c2cccc(NC(=O)[C@H](Cc3c[nH]cn3)NC(=O)OC(C)(C)C)c2)C2CC2)c(=O)o1 (stereo partly shown) shows Ki below 200 nM.
[out] YES

[in] Please let me know if CCC(Cc1ccc(Br)cc1)c1cc(O)c(C(c2ccccc2)C2CC2)c(=O)o1 (stereo not shown) shows Ki below 200 nM.
[out] YES

[in] Please let me know if CCC(CC1CCCO1)c1cc(O)c(C(c2ccccc2)C2CC2)c(=O)o1 (stereo not shown) shows Ki below 200 nM.
[out] YES

[in] Please let me know if O=c1oc(CC(O)c2ccc(F)cc2)cc(O)c1C(c1ccccc1)C1CC1 (stereo not shown) shows Ki below 200 nM.
[out] YES

[in] Please let me know if COCCOCCC(Cc1ccccc1)c1cc(O)c(C(c2ccccc2)C2CC2)c(=O)o1 (stereo not shown) shows Ki below 200 nM.
[out] YES

[in] Please let me know if CCC(c1ccccc1)c1c(O)cc(CCC2CC2)oc1=O (stereo not shown) shows Ki below 200 nM.
[out] NO

[in] Please let me know if CCC(c1ccccc1)c1c(O)c(Br)c(CCC2CC2)oc1=O (stereo not shown) shows Ki below 200 nM.
[out] NO

[in] Please let me know if CCC(Cc1ccccc1)c1cc(O)c(C(c2cccc(NS(=O)(=O)c3cccc4cccnc34)c2)C2CC2)c(=O)o1 (stereo not shown) shows Ki below 200 nM.
[out] YES

[in] Please let me know if CCC(CCC(F)(F)F)c1cc(O)c(C(c2ccccc2)C2CC2)c(=O)o1 (stereo not shown) shows Ki below 200 nM.
[out] YES

[in] Please let me know if C=CC(C1=C(O)CC2(CCC3(CC2)OCCO3)OC1=O)c1ccccc1 (stereo not shown) shows Ki below 200 nM.
[out] NO

* * *

Target: HIV-1 protease (Human immunodeficiency virus type 1 group M subtype B)
Construct: The protease (or proteinase), consisting of only 99 amino acids, is among the smallest enzymes known
Assay: In vitro HIV protease inhibitory assay (HIV Protease FITC Assay)
Format: biochemical
Conditions: HIV-1 Dose 10.000 uM; read-out: HIV-1 Protease % Inhib
value-kind: inhibition at 10 µM (%)
Your answer should be a plain number; it is taken to be in %.

So, O=c1oc(CC(O)c2ccco2)cc(O)c1C(c1ccccc1)C1CC1 (stereo not drawn) ? Its inhibition at 10 µM was 87

So, CCC(Cc1ccccc1)c1cc(O)c(C2(c3ccccc3)CCC2)c(=O)o1 (stereo not drawn) ? Its inhibition at 10 µM was 53.4

So, CCC(Cc1ccccc1)c1cc(O)c(C(c2cccc(NS(=O)(=O)c3cc(Cl)ccc3Cl)c2)C2CC2)c(=O)o1 (stereo not drawn) ? Its inhibition at 10 µM was 94.9

* * *

Target: HIV-1 protease (Human immunodeficiency virus type 1 group M subtype B)
Construct: The protease (or proteinase), consisting of only 99 amino acids, is among the smallest enzymes known
Experiment: In vitro HIV protease inhibitory assay (HIV Protease FITC Assay)
Format: biochemical
Details: HIV-1 Dose 3.300 uM; read-out: HIV-1 Protease % Inhib
value-kind: inhibition at 3.3 µM (%)
Your answer should be a plain number; it is taken to be in %.

So, CCC(Cc1ccc(OC)cc1)c1cc(O)c(C(c2ccccc2)C2CC2)c(=O)o1 (stereo not shown) ? Its inhibition at 3.3 µM was 88.7

So, CCC(Cc1ccccc1)c1cc(O)c(C(c2cccc(NC(=O)c3ccc(C#N)cc3)c2)C2CC2)c(=O)o1 (stereo not shown) ? Its inhibition at 3.3 µM was 80.2

So, Cc1ccc(S(=O)(=O)Nc2cccc(C(c3c(O)cc(C(CC4CC4)CC4CCCOC4)oc3=O)C3CC3)c2)cc1 (stereo not shown) ? Its inhibition at 3.3 µM was 90.3

So, CCC(Cc1ccc(Br)cc1)c1cc(O)c(C(c2ccccc2)C2CC2)c(=O)o1 (stereo not shown) ? Its inhibition at 3.3 µM was 87

So, O=c1oc(CC(O)c2ccoc2)cc(O)c1C(c1ccccc1)C1CC1 (stereo not shown) ? Its inhibition at 3.3 µM was 48.8

So, CCC(Cc1ccccc1)c1cc(O)c(C(c2cccc(NC(=O)NS(=O)(=O)c3ccccc3)c2)C2CC2)c(=O)o1 (stereo not shown) ? Its inhibition at 3.3 µM was 85.6

So, CCC(CC1CCCCN1S(=O)(=O)c1ccc(C)cc1)c1cc(O)c(C(c2ccccc2)C2CC2)c(=O)o1 (stereo not shown) ? Its inhibition at 3.3 µM was 70.2

So, CCS(=O)(=O)Nc1cccc(C(c2c(O)cc(C(CC3CC3)CC3CCCOC3)oc2=O)C2CC2)c1 (stereo not shown) ? Its inhibition at 3.3 µM was 90.6

So, O=C(CCn1ccc2ccccc21)Nc1cccc(C(c2c(O)cc(C(CC3CC3)CC3CC3)oc2=O)C2CC2)c1 (stereo not shown) ? Its inhibition at 3.3 µM was 86.3

So, CCCCC1(Cc2ccccc2)CC(O)=C(C(CC)c2ccccc2)C(=O)O1 (stereo not shown) ? Its inhibition at 3.3 µM was 51.6

So, CCC(CCc1ccsc1)c1cc(O)c(C(c2ccccc2)C2CC2)c(=O)o1 (stereo not shown) ? Its inhibition at 3.3 µM was 84

So, CCC(Cc1ccccc1)c1cc(O)c(C(c2cccc(NS(=O)(=O)/C=C/c3ccccc3)c2)C2CC2)c(=O)o1 (stereo not shown) ? Its inhibition at 3.3 µM was 91.9

So, CCC(CCC1OCCCO1)c1cc(O)c(C(c2ccccc2)C2CC2)c(=O)o1 (stereo not shown) ? Its inhibition at 3.3 µM was 93.2

So, O=c1oc(CCCC(F)(F)F)cc(O)c1C(c1ccccc1)C1CC1 (stereo not shown) ? Its inhibition at 3.3 µM was 52.4

So, CCCC(CC1CCCOC1)c1cc(O)c(C(c2ccccc2)C2CC2)c(=O)o1 (stereo not shown) ? Its inhibition at 3.3 µM was 98.7

So, CCC(Cc1ccccc1)c1cc(O)c(C(c2cccc(NS(=O)(=O)c3ccccc3)c2)C2CC2)c(=O)o1 (stereo not shown) ? Its inhibition at 3.3 µM was 95.5

So, CCC(Cc1ccccc1)c1cc(O)c(C(c2cccc(NC(=O)Nc3ccc(Br)cc3)c2)C2CC2)c(=O)o1 (stereo not shown) ? Its inhibition at 3.3 µM was 16.1

So, CCCC1(CCCc2ccccc2)CC(O)=C(C(C=Cc2ccccc2)c2ccccc2)C(=O)O1 (stereo not shown) ? Its inhibition at 3.3 µM was 75.6

Origin of the recorded values: patent EP1203770A1
